B1: EEHEE_rd4_0647 (parent)
chain: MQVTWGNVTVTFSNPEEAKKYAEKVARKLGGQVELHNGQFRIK

- Variants of: B1
- protocol details: folding stability dG (cDNA display proteolysis); higher = more stable
- experimental parameters: PBS, room temperature
# binarize folding stability dG: threshold 2 kcal/mol inclusive, high side TRUE, low side FALSE

These solved cases illustrate the format of a correct answer.
Evaluate `M1L` : folding stability dG at minimum 2 kcal/mol?
TRUE

Evaluate `E17V` : folding stability dG at minimum 2 kcal/mol?
TRUE

Evaluate `Q2F` : folding stability dG at minimum 2 kcal/mol?
TRUE

Further cases:
Evaluate `V25K` : folding stability dG at minimum 2 kcal/mol?
FALSE

Evaluate `K19Q` : folding stability dG at minimum 2 kcal/mol?
TRUE

Evaluate `R41S` : folding stability dG at minimum 2 kcal/mol?
TRUE
